# ASSAY EXPLANATION: protein stability index of a GFP-peptide fusion (yeast GPS) (PSI 1-4); higher = more stable; sorted into four equal gates, so the index is relative within each strain
# CONDITION LABEL: san1∆
Response key: 1.0 means protein stability index >= 2; 0.0 means protein stability index < 2.

In plain terms: is recorded protein stability index at least 2 for QFSYVDSSMTTVQENEL [AAR2] ?
1.0

LMATEYQDIEGGFEDVE [RPB2] , same question.
1.0

Here is the next sequence: ANNQEYDLNFKLRETLV [SMC1]
1.0

Another sequence: IVHDDPASDDILDNINH [ITC1]
1.0

Queued: LAGKYIPNLTAKPFQVT [FAS1]
1.0

Thanks! And VFGISKTSSGSYNYVEN [ITC1] ?
1.0

Could you do the same for KIKPYVRSFSKALDELK [LRP1] , please?
1.0

Consider next the sequence FTLLDFKKQMQTIMKMG [SRP54] in the same way.
0.0

Subsequent entry: PPKPRKVLQLLRLTRIN [RPL7A]
0.0

Next entry: ALHYLVPFIIAAMVIMH [COB]
0.0

Check SNMILGSVELSTGDYTF [YML103C/NUP188] too.
1.0

Another sequence to check: KIFIAVVWYQRLTMGNV [RRI2]
0.0

Next record, please: KEVLPDLQNLNLNTDKL [YJL039C/NUP192]
1.0

Follow-up entry: AQYGIKALPIRRDDEVL [RPL26A]
1.0

Moving on to the next sequence: QKNYADPEKDSINATAL [SIN4]
0.0

Recorded values, source the supplement of paper PMC9732359.
